assay: CT10 (air/N2) ratio of the product of the drug concentration to the exposure time needed to reduce cell survival to 10% of controls using AA8 cells at 10 E 6 /mL in the clonogenic assay; format: functional, Cricetulus griseus, CHO-AA8
Friendly reminder: CT10 ratio below 3 is class 1, at or above is class 0.

1) O=[N+]([O-])c1cccc2nc3ccccc3c(NCCc3ccccc3)c12 ... class 1

**Query** Lab note: CT10 ratio threshold 3. Does this molecule come in strictly under it? CN(C)CCCCNc1c2ccccc2nc2cccc([N+](=O)[O-])c12
**Result** class 0

**Query** Now give it for O=[N+]([O-])c1cccc2nc3ccccc3c(NCc3ccccc3)c12 too.
**Result** class 1

**Query** Now give it for CC(C)CCNc1c2ccccc2nc2cccc([N+](=O)[O-])c12 too.
**Result** class 1

**Query** Now give it for CN(C)CCCNc1c2ccccc2nc2cccc([N+](=O)[O-])c12 too.
**Result** class 0

**Query** Now give it for CCCNc1c2ccccc2nc2cccc([N+](=O)[O-])c12 too.
**Result** class 0

**Query** Now give it for O=[N+]([O-])c1cccc2nc3ccccc3c(NCCO)c12 too.
**Result** class 0

**Query** Now give it for CN(C)CCNc1c2ccccc2nc2cccc([N+](=O)[O-])c12 too.
**Result** class 0

**Query** Now give it for O=C(O)CCCNc1c2ccccc2nc2cccc([N+](=O)[O-])c12 too.
**Result** class 1

**Query** Now give it for CN(C)CCCCCNc1c2ccccc2nc2cccc([N+](=O)[O-])c12 too.
**Result** class 0

**Query** Now give it for CN(C)CCCCCCNc1c2ccccc2nc2cccc([N+](=O)[O-])c12 too.
**Result** class 0

**Query** Now give it for CNCCCNc1c2ccccc2nc2cccc([N+](=O)[O-])c12 too.
**Result** class 0

----------
assay: Acridine pKa values were determined in aqueous solution at 25 degrees Centigrade by spectrophotometric method.; type: physicochemical
Please provide measured pKa for the entries that follow.
Numbers only.

Examples with their reported pKa follow.
1) CN(C)CCCCNc1c2ccccc2nc2cccc([N+](=O)[O-])c12 ... 6.9
2) O=[N+]([O-])c1cccc2nc3ccccc3c(NCCc3ccccc3)c12 ... 7.4
3) O=[N+]([O-])c1cccc2nc3ccccc3c(NCCCO)c12 ... 7.55
4) O=[N+]([O-])c1cccc2nc3ccccc3c(NCc3ccccc3)c12 ... 7.4
5) CC(C)CCNc1c2ccccc2nc2cccc([N+](=O)[O-])c12 ... 7.4

Please give pKa, item by item, for the list that follows.
1. CN(C)CCCNc1c2ccccc2nc2cccc([N+](=O)[O-])c12 [NITRACRINE]
2. CCCNc1c2ccccc2nc2cccc([N+](=O)[O-])c12
3. CN(C)CCCCCCNc1c2ccccc2nc2cccc([N+](=O)[O-])c12
4. O=[N+]([O-])c1cccc2nc3ccccc3c(NCCO)c12
5. CN(C)CCCCCNc1c2ccccc2nc2cccc([N+](=O)[O-])c12
6. CN(C)CCNc1c2ccccc2nc2cccc([N+](=O)[O-])c12

**Result**
1: 6.2; 2: 7.2; 3: 7.4; 4: 7.2; 5: 7.4; 6: 4.9

Please give pKa, item by item, for the list that follows.
1. CNCCCNc1c2ccccc2nc2cccc([N+](=O)[O-])c12
2. Nc1c2ccccc2nc2cccc([N+](=O)[O-])c12
3. CNc1c2ccccc2nc2cccc([N+](=O)[O-])c12

**Result**
1. 6.2
2. 7.3
3. 7.2

// data source = ChEMBL document CHEMBL1124754
